ASSAY: in vitro
RUN_PARAMETERS: mouse, liver microsomes, CLH
EXPERIMENTAL_READOUT: microsomal CLint at 1 h, 1 µM (µL/min/mg)
Only the number, expressed in µL/min/mg, is required.

- COMPOUND: "CC(=O)Nc1ncc(CN2CCC3(CCN(c4cc(C)n5ccnc5n4)C3)C2)s1 (racemic)"
  EXPERIMENTAL_READOUT: "microsomal CLint at 1 h, 1 µM"
  VALUE_UNIT: "µL/min/mg"
  NUMERIC_RESULT: 16

From here, focus on the item given below.
Please report the recorded microsomal CLint at 1 h, 1 µM for CC(=O)Nc1ncc(CN2CCC3(CCN(c4cc(C)cc(C)n4)C3)C2)s1 (racemic) . 264

====

ASSAY: Clearance in male CD1 mouse at 1 mg/kg, iv compound dissolved in saline measured after 24 hrs by LC-MS/MS analysis
Type: ADME, organism-based
RUN_PARAMETERS: in vivo
EXPERIMENTAL_READOUT: clearance (mL/min/kg)
Only the number, expressed in mL/min/kg, is required.

Please report the recorded clearance for CC(=O)Nc1ncc(CN2CCC3(CCN(c4cc(C)nc5ccccc45)C3)C2)s1 (single isomer, unassigned; (+)) . 55.8

====

ASSAY: in vitro
RUN_PARAMETERS: mouse, liver microsomes, CLH
EXPERIMENTAL_READOUT: microsomal CLint at 1 h, 1 µM (µL/min/mg)
Only the number, expressed in µL/min/mg, is required.

# annotated cases, reported microsomal CLint at 1 h, 1 µM shown
- COMPOUND: "COc1cc(N2CCC3(CCN(Cc4cnc(NC(C)=O)s4)C3)C2)cc(C)n1 (racemic)"
  VALUE_UNIT: "µL/min/mg"
  microsomal CLint at 1 h, 1 µM: 12
- COMPOUND: "CC(=O)Nc1ncc(CN2CCC3(CCN(c4cc(C)nc(C(F)(F)F)c4)C3)C2)s1 (racemic)"
  VALUE_UNIT: "µL/min/mg"
  microsomal CLint at 1 h, 1 µM: 55

Please report the recorded microsomal CLint at 1 h, 1 µM for CC(=O)Nc1ncc(CN2CCC3(CCN(c4cc(C)nc5ccccc45)C3)C2)s1 (single isomer, unassigned; (+)) . 15

====

Form field: microsomal CLint at 1 h, 1 µM (one value per entry).
ASSAY: in vitro
RUN_PARAMETERS: human, liver microsomes, CLH

# annotated cases, reported microsomal CLint at 1 h, 1 µM shown
- COMPOUND: "CC(=O)Nc1ncc(CN2CCC3(CCN(c4cc(C)nc(C)c4)C3)C2)s1 (racemic)"
  EXPERIMENTAL_READOUT: "microsomal CLint at 1 h, 1 µM"
  RESULT: "< 8 µL/min/mg"
- COMPOUND: "CC(=O)Nc1ncc(CN2CCC3(CCN(c4cc(C)n5ccnc5n4)C3)C2)s1 (racemic)"
  EXPERIMENTAL_READOUT: "microsomal CLint at 1 h, 1 µM"
  RESULT: "< 8 µL/min/mg"
- COMPOUND: "CC(=O)Nc1ncc(CN2CCC3(CCN(c4cc(C)nc(C(F)(F)F)c4)C3)C2)s1 (racemic)"
  EXPERIMENTAL_READOUT: "microsomal CLint at 1 h, 1 µM"
  RESULT: "46 µL/min/mg"
- COMPOUND: "COc1cc(N2CCC3(CCN(Cc4cnc(NC(C)=O)s4)C3)C2)cc(C)n1 (racemic)"
  EXPERIMENTAL_READOUT: "microsomal CLint at 1 h, 1 µM"
  RESULT: "< 8 µL/min/mg"
- COMPOUND: "CC(=O)Nc1ncc(CN2CCC3(CCN(c4cc(C)nc5ncnn45)C3)C2)s1 (configuration not stated)"
  EXPERIMENTAL_READOUT: "microsomal CLint at 1 h, 1 µM"
  RESULT: "< 8 µL/min/mg"

Please report the recorded microsomal CLint at 1 h, 1 µM for CC(=O)Nc1ncc(CN2CCC3(CCN(c4cc(C)nc5ccccc45)C3)C2)s1 (single isomer, unassigned; (+)) . < 8 µL/min/mg

Follow-up item: CC(=O)Nc1ncc(CN2CCC3(CCN(c4cc(C)cc(C)n4)C3)C2)s1 (racemic) 101 µL/min/mg
